Source of measurements: patent US20260078159A1

Parameter: PD1 blocking activity (reporter assay) EC50. Scope: all listed entries.
subject-of-test: human PD1 on cells (human, UniProt Q15116 25-288)
Sequence (Q15116 25-288 limits assumed): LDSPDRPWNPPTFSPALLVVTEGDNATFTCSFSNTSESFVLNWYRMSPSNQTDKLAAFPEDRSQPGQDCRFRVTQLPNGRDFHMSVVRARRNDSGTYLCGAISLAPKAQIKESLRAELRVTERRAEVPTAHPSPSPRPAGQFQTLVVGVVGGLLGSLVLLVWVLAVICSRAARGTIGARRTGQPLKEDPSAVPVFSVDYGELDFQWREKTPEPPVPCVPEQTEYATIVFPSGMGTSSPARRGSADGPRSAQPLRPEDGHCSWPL
assay: cell-based or functional assay
observed-property: PD1 blocking activity (reporter assay) EC50

>>> result("P-1151 (antibody, human IgG1, kappa, V domains shown, Full-length IgG1 L234A/L235A/G237A, kappa) VH: QVQLVQSGVEVKKPGASVKVSCKASGYTFTNYYMYWVRQAPGQGLEWMGGINPSNGGTNYAQKFQGRVTLTTDSSTTTAYMELKSLQFDDTAVYYCARRDYRFDMGFDYWGQGTTVTVSS VL: EIVLTQSPATLSLSPGERATLSCRASQGVSTSGYSYLHWYQQKPGQAPRLLIYLASYRASGVPARFSGSGSGTDFTLTISSLEPEDFAVYYCQHSRDLPLTFGGGTKVEIKR")
"2.83 nM"
>>> result("P-1148 (antibody, human IgG1, kappa, V domains shown, Full-length IgG1 L234A/L235A/G237A, kappa) VH: QVQLVQSGVEVKKPGASVKVSCKASGYTFTNYYMYWVRQAPGQGLEWMGGINPSNGGTNFAQKFQGRVTLTTDSSTTTAYMELKSLQFDDTAVYYCARRDYRFDMGFDYWGQGTTVTVSS VL: EIVLTQSPATLSLSPGERATLSCRASQGVSTSGYSYLHWYQQKPGQAPRLLIYLASYRASGVPARFSGSGSGTDFTLTISSLEPEDFAVYYCQHSRDLPLTFGGGTKVEIKR")
"1.56 nM"
>>> result("P-1153 (antibody, human IgG1, kappa, V domains shown, Full-length IgG1 L234A/L235A/G237A, kappa) VH: QVQLVQSGVEVKKPGASVKVSCKASGYTFTNYYMYWVRQAPGQGLEWMGGINPSNGGTNYAQKFQGRVTLTTDSSTTTAYMELKSLQFDDTAVYYCARRDYRFDMGFDYWGQGTTVTVSS VL: EIVLTQSPATLSLSPGERATLSCRASQGVSTSGYSYLAWYQQKPGQAPRLLIYLASYRASGVPARFSGSGSGTDFTLTISSLEPEDFAVYYCQHSRDLPLTFGGGTKVEIKR")
"9.88 nM"
>>> result("P-1150 (antibody, human IgG1, kappa, V domains shown, Full-length IgG1 L234A/L235A/G237A, kappa) VH: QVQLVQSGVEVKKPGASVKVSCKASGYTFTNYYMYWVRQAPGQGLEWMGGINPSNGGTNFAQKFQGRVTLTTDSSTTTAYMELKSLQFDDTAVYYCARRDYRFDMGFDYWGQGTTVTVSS VL: EIVLTQSPATLSLSPGERATLSCRASQGVSTSGYSYLAWYQQKPGQAPRLLIYLASYRASGVPARFSGSGSGTDFTLTISSLEPEDFAVYYCQHSRDLPLTFGGGTKVEIKR")
"5.55 nM"
